Recorded measurements of Growth Rate, one per entry
Test system: Fibroblast
EXPERIMENT_SUMMARY: Incucyte cell viability with human fibroblast; further: filed as whole numbers so only -1 and 0 and 1 occur
Format: toxicity, cell-based
CONDITION_INFO: 24 h, 10 µM, compound concentration 10 uM, replicate number 2, timepoint 24 hours
Would you mind answering with just the numeric figure?

molecule="Cc1nc(NC(=O)N2CCC[C@H]2C(N)=O)sc1-c1ccnc(C(C)(C)C(F)(F)F)c1 [ALPELISIB]" parameter="Growth Rate" obs_value=0
molecule=CCN1CCN(Cc2ccc(Nc3ncc(F)c(-c4cc(F)c5nc(C)n(C(C)C)c5c4)n3)nc2)CC1.CS(=O)(=O)O parameter="Growth Rate" obs_value=1
molecule=Cc1nnc2c3ccccc3c(N[C@@H](C)[C@H](c3ccccc3)N(C)C)nn12 parameter="Growth Rate" obs_value=0
molecule=CCCCN(CCCC)C(=O)CN1C[C@H](c2cc(OC)c3c(c2)OCO3)[C@@H](C(=O)O)[C@@H]1CC(C)(C)CCC.Cc1ccc(S(=O)(=O)O)cc1 parameter="Growth Rate" obs_value=1
molecule=C[C@@H](c1cccc(C#N)c1)n1cc(Cl)cc(C(N)=O)c1=N.Cl parameter="Growth Rate" obs_value=0
molecule=NC(=O)c1cccc(-c2cc(Nc3ccc(OC(F)(F)F)cc3)ncn2)c1 parameter="Growth Rate" obs_value=1
molecule="CCOc1cc2ncc(C#N)c(Nc3ccc(OCc4ccccn4)c(Cl)c3)c2cc1NC(=O)/C=C/CN(C)C [NERATINIB]" parameter="Growth Rate" obs_value=1
molecule="Cc1oncc1C(=O)Nc1ccc(C(F)(F)F)cc1 [LEFLUNOMIDE]" parameter="Growth Rate" obs_value=0

Now for another entry.
Query: Growth Rate lookup needed for `CC(C)c1onc(-c2c(Cl)cccc2Cl)c1COc1ccc(/C=C/c2cccc(C(=O)O)c2)c(Cl)c1` , thanks.
Reply: 1

====

Tested on: HEK-293T
EXPERIMENT_SUMMARY: Multiplex assay against HEK293T
Type: toxicity, cell-based
CONDITION_INFO: human, 12 h, 10 µM, compound concentration 10 uM, replicate 1
PARAMETER: Population Pyknosed Nuclei (%)
Give a bare numeral; the unit % is implied.

Worked cases, Population Pyknosed Nuclei (%) given:
molecule=CCCS(=O)(=O)c1nc(NC2CC2)cc(-c2ccc3c(ccn3C3CC(C)(C)NC(C)(C)C3)c2)n1 parameter="Population Pyknosed Nuclei (%)" obs_value=33
molecule=O=C(Nc1cccnn1)N1CCC(=Cc2cccc(Oc3ccc(C(F)(F)F)cn3)c2)CC1 parameter="Population Pyknosed Nuclei (%)" obs_value=18

Query: What value of measured Population Pyknosed Nuclei (%) is listed for `COC(=N)c1nc2ccc3ncnc(Nc4ccc(OC)cc4F)c3c2s1` ?
Reply: 22

Query: Need Population Pyknosed Nuclei (%) of `CCn1c(=O)c(-c2ccc(-c3cncs3)cc2Cl)cc2cnc(Nc3ccc(N4CCN(C)CC4)cc3)nc21` , thanks.
Reply: 30

Query: Name the recorded Population Pyknosed Nuclei (%) for `CCCS(=O)(=O)Nc1ccc(F)c(C(=O)c2c[nH]c3ncc(Cl)cc23)c1F` .
Reply: 12

Query: # query: Population Pyknosed Nuclei (%) of entry `Cl.O=c1c2cccn2c2ccccc2n1CCCN1CCC(c2ccc(Cl)cc2)CC1`
Reply: 57

Query: Requested field: Population Pyknosed Nuclei (%). Item: `O=C(Cc1ccc(-c2ccc(OCCN3CCOCC3)cc2)cn1)NCc1ccccc1`
Reply: 58

Query: Looking for the measured Population Pyknosed Nuclei (%) of `CCc1cccc(CC)c1NC(=O)c1nn(C)c2c1CCc1cnc(Nc3ccc(N4CCN(C)CC4)cc3OC)nc1-2` , can you help?
Reply: 24

Query: For the molecule shown here, `CNC(=O)c1ccc(Nc2nc(OC3CCCC3)c3c(-c4ccc5nc(C)oc5c4)c[nH]c3n2)c(OC)c1` , give the reported Population Pyknosed Nuclei (%).
Reply: 30

Query: Fill in the blank: the reported Population Pyknosed Nuclei (%) of `C=C1/C(=C\C=C2/CCC[C@]3(C)[C@@H]([C@H](C)/C=C/[C@H](C)C(C)C)CC[C@@H]23)C[C@@H](O)C[C@@H]1O` is ____.
Reply: 59

Query: Which Population Pyknosed Nuclei (%) value belongs to CN(C)C(=O)C(CCN1CCC(O)(c2ccc(Cl)cc2)CC1)(c1ccccc1)c1ccccc1.Cl [LOPERAMIDE HYDROCHLORIDE] ?
Reply: 82

Query: Using the record for `COCC(=O)NC/C=C/c1ccc2ncnc(Nc3ccc(Oc4ccc(C)nc4)c(C)c3)c2c1` , report its Population Pyknosed Nuclei (%).
Reply: 62

Query: // returns reported Population Pyknosed Nuclei (%) for input `COc1cccc2cc(-c3nc([C@H]4CC[C@H](C(=O)O)CC4)n4ncnc(N)c34)[nH]c12`
Reply: 27

Query: Give its Population Pyknosed Nuclei (%) value. Item: CCOC(=O)c1c(C)[nH]c2ccc3c(c12)CN1CCc2cc(OC)ccc2C1O3 (stereo not given)
Reply: 76

Query: For the molecule `C=CCn1c(=O)c2cnc(Nc3ccc(N4CCN(C)CC4)cc3)nc2n1-c1cccc(C(C)(C)O)n1` , what Population Pyknosed Nuclei (%) is on record?
Reply: 56

====

Test system: U2OS
EXPERIMENT_SUMMARY: Multiplex assay against U2OS
Format: toxicity, cell-based
CONDITION_INFO: human, 48 h, 10 µM, compound concentration 10 uM, replicate 1
Measured Total Cell Count, listed per entry.

compound="CN(C)C(=O)C(CCN1CCC(O)(c2ccc(Cl)cc2)CC1)(c1ccccc1)c1ccccc1.Cl [LOPERAMIDE HYDROCHLORIDE]" parameter="Total Cell Count" obs_value=177
compound=Cc1cc(C)c(S(=O)(=O)N(Cc2ccc(-c3cccc(S(C)(=O)=O)c3)cc2)Cc2ccc(C(F)(F)F)o2)c(C)c1 parameter="Total Cell Count" obs_value=181
compound=Cl.O=c1c2cccn2c2ccccc2n1CCCN1CCC(c2ccc(Cl)cc2)CC1 parameter="Total Cell Count" obs_value=318
compound=O=C(Cc1ccc(-c2ccc(OCCN3CCOCC3)cc2)cn1)NCc1ccccc1 parameter="Total Cell Count" obs_value=174

Query: Need Total Cell Count, item `O=C(Nc1ccc(-n2nc(-c3cccnc3)cc2C(F)(F)F)cn1)c1ccc(-c2ccccc2)c(F)c1`
Reply: 181

Query: I would be grateful if you could share the reported Total Cell Count for `CCN1CCN(Cc2ccc(Nc3ncc(F)c(-c4cc(F)c5nc(C)n(C(C)C)c5c4)n3)nc2)CC1.CS(=O)(=O)O` .
Reply: 137

Query: I'd like to know its Total Cell Count. The compound in question is `CCCS(=O)(=O)c1nc(NC2CC2)cc(-c2ccc3c(ccn3C3CC(C)(C)NC(C)(C)C3)c2)n1`
Reply: 198

Query: Quick one: Total Cell Count of `CCn1c(=O)c(-c2ccc(-c3cncs3)cc2Cl)cc2cnc(Nc3ccc(N4CCN(C)CC4)cc3)nc21` ?
Reply: 321

Query: Sample `O=C1NC(=O)C(c2cnc3ccccn23)=C1c1cn2c3c(cc(F)cc13)CN(C(=O)N1CCCCC1)CC2` — what was its Total Cell Count?
Reply: 221

Query: # Total Cell Count lookup, item CN1C2CCC1CC(OC(c1ccc(F)cc1)c1ccc(F)cc1)C2.Cl (configuration not stated)
Reply: 249

Query: Could you share which Total Cell Count value was measured for `Cc1ccc(C(=O)Nc2cccc(C(F)(F)F)c2)cc1Nc1nc(-c2cccnc2)nc2c1cnn2C` ?
Reply: 219

Query: So what does the record say about Total Cell Count for `COc1cc(N2CCN(C)CC2)ccc1Nc1ncc2c(n1)N(C)c1ccccc1C(=O)N2C` ?
Reply: 297

Query: Quick one: Total Cell Count of `CCOc1cc(C(=O)N2CCC(N3CCN(C)CC3)CC2)ccc1Nc1ncc2c(n1)N(C1CCCC1)c1ccccc1C(=O)N2C` ?
Reply: 281

Query: Return reported Total Cell Count; argument: CCOC(=O)c1c(C)[nH]c2ccc3c(c12)CN1CCc2cc(OC)ccc2C1O3 (configuration not stated)
Reply: 196

Query: State the recorded Total Cell Count for this entry: `COCC(=O)NC/C=C/c1ccc2ncnc(Nc3ccc(Oc4ccc(C)nc4)c(C)c3)c2c1`
Reply: 163

Query: Fill blank: measured Total Cell Count of the compound `CCc1cccc(CC)c1NC(=O)c1nn(C)c2c1CCc1cnc(Nc3ccc(C(=O)NC4CCN(C)CC4)cc3OC(F)(F)F)nc1-2` is ____.
Reply: 188

Query: I am curious: what Total Cell Count value has been reported for `CCCn1c(=O)c2[nH]c(-c3cnn(Cc4cccc(C(F)(F)F)c4)c3)nc2n(CC)c1=O` ?
Reply: 198

====

Tested on: Fibroblast
EXPERIMENT_SUMMARY: Multiplex assay against human fibroblast
Assay type: toxicity, cell-based
CONDITION_INFO: 48 h, 1 µM, compound concentration 1 uM, replicate 2
PARAMETER: Population Mitochondria Different-Phenotype (%)
State the answer as a number, implicitly in %.

See these solved cases before continuing.
compound=O=C1NC(=O)C(c2cnc3ccccn23)=C1c1cn2c3c(cc(F)cc13)CN(C(=O)N1CCCCC1)CC2 target_or_test_system=Fibroblast unit_text=% obs_value=26
compound=O=C1N/C(=N/c2ccccc2F)S/C1=C\c1ccc(C(=O)O)cc1 target_or_test_system=Fibroblast unit_text=% obs_value=3

Query: Bench note: what Population Mitochondria Different-Phenotype (%) did `Cc1cc(C)c(S(=O)(=O)N(Cc2ccc(-c3cccc(S(C)(=O)=O)c3)cc2)Cc2ccc(C(F)(F)F)o2)c(C)c1` show?
Reply: 2

Query: Would you mind telling me what Population Mitochondria Different-Phenotype (%) value was observed for `Cc1ccc(C(=O)Nc2cccc(C(F)(F)F)c2)cc1Nc1nc(-c2cccnc2)nc2c1cnn2C` ?
Reply: 3

Query: What value of Population Mitochondria Different-Phenotype (%) has been recorded for this entry: `O=C(Cc1ccc(-c2ccc(OCCN3CCOCC3)cc2)cn1)NCc1ccccc1`
Reply: 7

Query: Which Population Mitochondria Different-Phenotype (%) value belongs to `CCN1CCN(Cc2ccc(Nc3ncc(F)c(-c4cc(F)c5nc(C)n(C(C)C)c5c4)n3)nc2)CC1.CS(=O)(=O)O` ?
Reply: 5

Query: Any idea what its Population Mitochondria Different-Phenotype (%) is? The compound is CCOC(=O)c1c(C)[nH]c2ccc3c(c12)CN1CCc2cc(OC)ccc2C1O3 (stereo not drawn)
Reply: 3

Query: // lookup Population Mitochondria Different-Phenotype (%) for `Cc1cn(-c2cc(NC(=O)c3ccc(C)c(Nc4nccc(-c5cccnc5)n4)c3)cc(C(F)(F)F)c2)cn1`
Reply: 2
